The reported numbers originate from patent US11518763B2.

target-desc: binding between NRF2 and KEAP1 (biotinylated human KEAP1 protein (Kelch domain), TAMRA-labeled NRF2 peptide) (Homo sapiens, UniProt Q14145)
Construct: biotinylated human KEAP1 protein (Kelch domain); biotin (biotinylated)
Sequence (Q14145 321-609 limits assumed): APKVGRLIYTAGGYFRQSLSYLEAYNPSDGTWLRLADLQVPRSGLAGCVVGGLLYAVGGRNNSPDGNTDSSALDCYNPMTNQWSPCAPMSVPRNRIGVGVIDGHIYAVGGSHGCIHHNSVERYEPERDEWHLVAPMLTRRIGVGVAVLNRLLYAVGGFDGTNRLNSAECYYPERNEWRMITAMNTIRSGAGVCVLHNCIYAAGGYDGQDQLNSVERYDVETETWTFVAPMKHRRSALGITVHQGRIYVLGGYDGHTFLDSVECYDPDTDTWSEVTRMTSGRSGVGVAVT
assay-overview: Measurement of activity of inhibiting NRF2 binding (NRF2-KEAP1 TR-FRET)
test-settings: inhibition rate relative to control at 100 nM test compound; TR-FRET; 60 min at room temperature; read-out: NRF2 binding inhibitory activity (at 100 nM)
reported-endpoint: inhibition at 0.1 µM (%)

| compound | inhibition at 0.1 µM, % |
| --- | --- |
| Cc1c2ccc3c1nnn3CCCCOc1cc(F)c(c(F)c1)C(=O)N1CCc3ccc(cc3C1)C2CC(=O)O (racemic) [Example 32] | 100 |
| Cc1c2ccc3c1nnn3CCCCCc1cc(Cl)c(c(Cl)c1)C(=O)N1CCc3ccc(cc3C1)C2CC(=O)O (racemic) [Example 64] | 100 |
| Cc1c2ccc3c1nnn3CCCCOc1ccc(cc1)C(=O)N1CCc3ccc(cc3C1)C2CC(=O)O (racemic) [Example 30] | 100 |
| Cc1c2ccc3c1nnn3CC/C=C\CCc1ccc(cc1)C(=O)N1CCc3ccc(cc3C1)C2CC(=O)O (racemic) [Example 14] | 79 |

====

target-desc: binding between NRF2 and KEAP1 (biotinylated human KEAP1 protein (Kelch domain), TAMRA-labeled NRF2 peptide) (Homo sapiens)
Construct: biotinylated human KEAP1 protein (Kelch domain); biotin (biotinylated)
assay-overview: Measurement of activity of inhibiting NRF2 binding (NRF2-KEAP1 TR-FRET)
test-settings: inhibition rate relative to control at 100 nM test compound; TR-FRET; 60 min at room temperature; read-out: NRF2 binding inhibitory activity (at 100 nM)
reported-endpoint: inhibition at 0.1 µM (%)

| compound | readout-units | inhibition at 0.1 µM |
| --- | --- | --- |
| Cc1c2ccc3c1nnn3CCCOCc1ccc(c(F)c1)C(=O)N1CCc3ccc(cc3C1)C2CC(=O)O (racemic) [Example 21] | % | 100 |
| Cc1cc2cc(C)c1C(=O)N1CCc3ccc(cc3C1)C(C(C)(C)C(=O)O)c1ccc3c(nnn3CCCOC2)c1C (stereo not drawn) [Example 58] | % | 100 |
| CCOC(=O)CC1c2ccc3c(c2)CN(CC3)C(=O)c2ccc(cc2)COCCCn2nnc3c(C)c1ccc32 (racemic) [Example 27] | % | 6 |
| Cc1c2ccc3c1nnn3CCCOCc1ccc(cc1)C(=O)N1CCc3ccc(cc3C1)C2CC(=O)O (stereo not drawn) [Example 25] | % | 100 |

A. CCOC(=O)CC1c2ccc3c(c2)CN(CC3)C(=O)c2ccc(cc2)COCCCn2nnc3c(C)c1ccc32 (stereo not drawn) [Example 36]
B. Cc1c2ccc3c1nnn3CCCCCc1ccc(cc1)C(=O)N1CCc3ccc(cc3C1)C2CC(=O)Nc1cccnc1 (stereo not drawn) [Example 39]
Data request: Rank A against B by their inhibition at 0.1 µM values and give the higher one. Field: selected label. Fill in the label of the entry you choose.
Data returned: B

====

target-desc: binding between NRF2 and KEAP1 (biotinylated human KEAP1 protein (Kelch domain), TAMRA-labeled NRF2 peptide) (Homo sapiens, UniProt Q14145)
Construct: biotinylated human KEAP1 protein (Kelch domain); biotin (biotinylated)
assay-overview: Measurement of activity of inhibiting NRF2 binding (NRF2-KEAP1 TR-FRET)
test-settings: inhibition rate relative to control at 100 nM test compound; TR-FRET; 60 min at room temperature; read-out: NRF2 binding inhibitory activity (at 100 nM)
reported-endpoint: inhibition at 0.1 µM (%)

| compound | readout-units | inhibition at 0.1 µM |
| --- | --- | --- |
| Cc1c2ccc3c1nnn3CCCCCc1ccc(c(Cl)c1)C(=O)N1CCc3ccc(cc3C1)C2CC(=O)O (racemic) [Example 9] | % | 100 |
| Cc1c2ccc3c1nnn3CCCOCc1ccc(cc1)C(=O)N1CCc3ccc(cc3C1)C2CC(=O)O (racemic) [Example 16] | % | 100 |
| Cc1cc2cc(C)c1C(=O)N1CCc3ccc(cc3C1)C(CC(=O)O)c1ccc3c(nnn3CCCOC2)c1C (stereo not shown) [Example 67] | % | 99 |
| Cc1c2ccc3c1nnn3CCCCCc1cc(Cl)c(c(Cl)c1)C(=O)N1CCc3ccc(cc3C1)C2C(C)(C)C(=O)O (racemic) [Example 57] | % | 100 |

====

target-desc: binding between NRF2 and KEAP1 (biotinylated human KEAP1 protein (Kelch domain), TAMRA-labeled NRF2 peptide) (Homo sapiens)
Construct: biotinylated human KEAP1 protein (Kelch domain); biotin (biotinylated)
assay-overview: Measurement of activity of inhibiting NRF2 binding (NRF2-KEAP1 TR-FRET)
test-settings: inhibition rate relative to control at 100 nM test compound; TR-FRET; 60 min at room temperature; 0.1 µM
reported-endpoint: NRF2 binding inhibitory activity (at 100 nM) (%)

| molecule | endpoint-result |
| --- | --- |
| Cc1c2ccc3c1nnn3CCCOCc1cc(Cl)c(c(Cl)c1)C(=O)N1CCc3ccc(cc3C1)C2C(C)(C)C(=O)O (stereo not shown) [Example 61] | 99 |
| Cc1c2ccc3c1nnn3CCCOCc1ccc(cc1)C(=O)N1CCc3ccc(cc3C1)C2CC(=O)O (stereo not shown) [Example 26] | 99 |
| Cc1c2ccc3c1nnn3CCCOCc1ccc(cc1)C(=O)N1CCc3ccc(cc3C1)C2C(C)(C)C(=O)O (stereo not shown) [Example 56] | 99 |
| Cc1c2ccc3c1nnn3CCCCOc1cc(Cl)c(c(Cl)c1)C(=O)N1CCc3ccc(cc3C1)C2C(C)(C)C(=O)O (stereo not shown) [Example 66] | 94 |
| Cc1c2ccc3c1nnn3CCCCCc1ccc(cc1)C(=O)N1CCc3ccc(cc3C1)C2C(C)(C)C(=O)O (stereo not shown) [Example 62] | 100 |

1. Cc1cc2cc(C)c1C(=O)N1CCc3ccc(cc3C1)C(CC(=O)O)c1ccc3c(nnn3CCCOC2)c1C (stereo not shown) [Example 68]
2. Cc1c2ccc3c1nnn3CCCCCc1ccc(cc1)C(=O)N1CCc3ccc(cc3C1)C2C(C)(C)C(=O)O (stereo not shown) [Example 63]
Data request: I need your help: which of the pair 1 , 2 has higher NRF2 binding inhibitory activity (at 100 nM)? Kindly give the label for the entry you pick.
Data returned: 1

====

target-desc: binding between NRF2 and KEAP1 (biotinylated human KEAP1 protein (Kelch domain), TAMRA-labeled NRF2 peptide) (Homo sapiens)
Construct: biotinylated human KEAP1 protein (Kelch domain); biotin (biotinylated)
assay-overview: Measurement of activity of inhibiting NRF2 binding (NRF2-KEAP1 TR-FRET)
test-settings: inhibition rate relative to control at 100 nM test compound; TR-FRET; 60 min at room temperature; read-out: NRF2 binding inhibitory activity (at 100 nM)
reported-endpoint: inhibition at 0.1 µM (%)

| compound | readout-units | inhibition at 0.1 µM |
| --- | --- | --- |
| O=C(O)CC1c2ccc3c(c2)CN(CC3)C(=O)c2ccc(cc2)CCCCCn2nnc3cc1ccc32 (racemic) [Example 2] | % | 100 |
| COc1cc2ccc1C(=O)N1CCc3ccc(cc3C1)C(CC(=O)O)c1ccc3c(nnn3CCCOC2)c1C (racemic) [Example 22] | % | 100 |
| Cc1c2ccc3c1nnn3CCCCc1ccc(cc1)C(=O)N1CCc3ccc(cc3C1)C2CC(=O)O (racemic) [Example 13] | % | 99 |
| Cc1c2ccc3c1nnn3CCCCCc1ccc(cc1)C(=O)N1CCc3ccc(cc3C1)C2C(C)C(=O)O (stereo not shown) [Example 6] | % | 100 |
| Cc1c2ccc3c1nnn3CCCCCc1ccc(cc1)C(=O)N1CCc3ccc(cc3C1)C2CC(=O)O (racemic) [Example 1] | % | 100 |
| Cc1c2ccc3c1nnn3CCCCOc1ccc(c(F)c1)C(=O)N1CCc3ccc(cc3C1)C2CC(=O)O (racemic) [Example 31] | % | 100 |
| Cc1c2ccc3c1nnn3CCCOCc1ccc(cc1)C(=O)N1CCc3ccc(cc3C1)C2CC(=O)OC(C)OC(=O)OC1CCCCC1 (stereo not shown) [Example 40] | % | 82 |

====

target-desc: binding between NRF2 and KEAP1 (biotinylated human KEAP1 protein (Kelch domain), TAMRA-labeled NRF2 peptide) (Homo sapiens)
Construct: biotinylated human KEAP1 protein (Kelch domain); biotin (biotinylated)
assay-overview: Measurement of activity of inhibiting NRF2 binding (NRF2-KEAP1 TR-FRET)
test-settings: inhibition rate relative to control at 100 nM test compound; TR-FRET; 60 min at room temperature; read-out: NRF2 binding inhibitory activity (at 100 nM)
reported-endpoint: inhibition at 0.1 µM (%)

| molecule | reported-endpoint | readout-units | endpoint-result |
| --- | --- | --- | --- |
| Cc1c2ccc3c1nnn3CCCOCc1ccc(c(C3CC3)c1)C(=O)N1CCc3ccc(cc3C1)C2CC(=O)O (racemic) | inhibition at 0.1 µM | % | 100 |
| Cc1c2ccc3c1nnn3CCCCCc1ccc(c(F)c1)C(=O)N1CCc3ccc(cc3C1)C2CC(=O)O (racemic) | inhibition at 0.1 µM | % | 100 |
| Cc1c2ccc3c1nnn3CCCOCc1ccc(c(C(F)(F)F)c1)C(=O)N1CCc3ccc(cc3C1)C2CC(=O)O (racemic) | inhibition at 0.1 µM | % | 100 |
| Cc1oc(=O)oc1COC(=O)CC1c2ccc3c(c2)CN(CC3)C(=O)c2ccc(cc2)COCCCn2nnc3c(C)c1ccc32 (stereo not shown) | inhibition at 0.1 µM | % | 99 |
